// data source = the supplement of paper PMC10126150

Tested on: ATP;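 further: ATP exposure 15 min at 22 °C before imaging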
Assay protocol: switch fluorescence ratio, 500 uM ATP over buffer (Cy3 cluster intensity, sum of 5 cycles each) (fold (ratio)); higher = stronger signal-on switching upon ATP binding; sequences stand for … in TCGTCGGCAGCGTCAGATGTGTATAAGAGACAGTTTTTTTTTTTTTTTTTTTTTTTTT…TC
Study conditions: aptamer strand: ATP DNA aptamer (quencher-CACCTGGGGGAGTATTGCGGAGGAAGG + anchor), 100 nM annealed; ATP concentration: 500 uM
Known switch fluorescence ratio of a selection of sequences
Just the number, please, no unit attached.

Answered examples (5):
Field switch fluorescence ratio (ATP), entry GGATGTTGTG : 0.974

Field switch fluorescence ratio (ATP), entry AGGAGGAGGA : 1.07

Field switch fluorescence ratio (ATP), entry TAGACGGGGG : 1

Field switch fluorescence ratio (ATP), entry TTTGGGATT : 0.999

Field switch fluorescence ratio (ATP), entry TGTGTCTGTT : 0.993

***
Field switch fluorescence ratio (ATP), entry CTCGGGACGG : 1.01

Field switch fluorescence ratio (ATP), entry CAGATGTGTT : 0.973

Field switch fluorescence ratio (ATP), entry GCAGCGGGGA : 1.04

Field switch fluorescence ratio (ATP), entry TTTCTCGTTT : 1.01

Field switch fluorescence ratio (ATP), entry CATGTGTAAT : 1.01

Field switch fluorescence ratio (ATP), entry TTGGTCGTAC : 1.03

====

System: ATP;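 further: ATP exposure 15 min at 22 °C before imaging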
Assay protocol: switch fluorescence ratio, 500 uM ATP over buffer (Cy3 cluster intensity, sum of 5 cycles each) (fold (ratio)); higher = stronger signal-on switching upon ATP binding; sequences stand for … in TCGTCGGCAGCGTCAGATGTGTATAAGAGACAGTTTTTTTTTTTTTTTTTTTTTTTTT…TC
Study conditions: aptamer strand: ATP DNA aptamer (quencher-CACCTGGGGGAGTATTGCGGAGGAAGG + anchor), 100 nM annealed; ATP concentration: 500 uM
Assay readout: switch fluorescence ratio
Just the number, please, no unit attached.

Query TGTGGTGGGT yields switch fluorescence ratio of 1.04

====

Known switch fluorescence ratio of a selection of sequences
Test system: ATP;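 further: ATP exposure 15 min at 22 °C before imaging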
Assay protocol: switch fluorescence ratio, 500 uM ATP over buffer (Cy3 cluster intensity, sum of 5 cycles each) (fold (ratio)); higher = stronger signal-on switching upon ATP binding; sequences stand for … in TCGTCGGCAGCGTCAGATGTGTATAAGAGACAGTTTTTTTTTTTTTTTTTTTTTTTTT…TC
Study conditions: aptamer strand: ATP DNA aptamer (quencher-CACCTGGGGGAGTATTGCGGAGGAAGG + anchor), 100 nM annealed; ATP concentration: 500 uM
Just the number, please, no unit attached.

Query TTTATACTCT yields switch fluorescence ratio of 1.08

***
Query TTCCAATTTG yields switch fluorescence ratio of 1

Query TTAGAAGGG yields switch fluorescence ratio of 0.965

Query ATTAGGGTTT yields switch fluorescence ratio of 1.04

Query CTGATTGGGC yields switch fluorescence ratio of 1

Query TCATGCTGGT yields switch fluorescence ratio of 1.01

Query AGTCTTAGCA yields switch fluorescence ratio of 0.991

====

System: ATP;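 further: ATP exposure 15 min at 22 °C before imaging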
Assay protocol: switch fluorescence ratio, 500 uM ATP over buffer (Cy3 cluster intensity, sum of 5 cycles each) (fold (ratio)); higher = stronger signal-on switching upon ATP binding; sequences stand for … in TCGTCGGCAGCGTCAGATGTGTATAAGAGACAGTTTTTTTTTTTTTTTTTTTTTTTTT…TC
Study conditions: aptamer strand: ATP DNA aptamer (quencher-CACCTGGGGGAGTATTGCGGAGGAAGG + anchor), 100 nM annealed; ATP concentration: 500 uM
Label no if switch fluorescence ratio falls below 1; label yes in every other case.

Example entries begin here.
Hello, I need to know if TTTTGACTTG has measured switch fluorescence ratio not below 1. Thanks! no

Hello, I need to know if CAGGGGGCAC has measured switch fluorescence ratio not below 1. Thanks! yes

Hello, I need to know if TTTTACTGCT has measured switch fluorescence ratio not below 1. Thanks! yes

Hello, I need to know if AGATGGGTGT has measured switch fluorescence ratio not below 1. Thanks! yes

***
Hello, I need to know if GGGTGCCCAT has measured switch fluorescence ratio not below 1. Thanks! yes

====

System: ATP;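 further: ATP exposure 15 min at 22 °C before imaging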
Assay protocol: switch fluorescence ratio, 500 uM ATP over buffer (Cy3 cluster intensity, sum of 5 cycles each) (fold (ratio)); higher = stronger signal-on switching upon ATP binding; sequences stand for … in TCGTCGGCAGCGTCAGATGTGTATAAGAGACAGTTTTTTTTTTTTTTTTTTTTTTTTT…TC
Study conditions: aptamer strand: ATP DNA aptamer (quencher-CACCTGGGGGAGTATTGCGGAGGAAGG + anchor), 100 nM annealed; ATP concentration: 500 uM
Known switch fluorescence ratio of a selection of sequences
Just the number, please, no unit attached.

Field switch fluorescence ratio (ATP), entry CGGCATTAAA : 0.995

***
Field switch fluorescence ratio (ATP), entry ACGGACATGG : 1.08

Field switch fluorescence ratio (ATP), entry CACAGGGAGT : 1.03

====

Test system: ATP;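 further: ATP exposure 15 min at 22 °C before imaging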
Assay protocol: switch fluorescence ratio, 500 uM ATP over buffer (Cy3 cluster intensity, sum of 5 cycles each) (fold (ratio)); higher = stronger signal-on switching upon ATP binding; sequences stand for … in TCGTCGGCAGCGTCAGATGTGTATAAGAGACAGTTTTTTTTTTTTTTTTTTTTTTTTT…TC
Study conditions: aptamer strand: ATP DNA aptamer (quencher-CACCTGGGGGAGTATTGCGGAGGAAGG + anchor), 100 nM annealed; ATP concentration: 500 uM
Assay readout: switch fluorescence ratio
Just the number, please, no unit attached.

Query TCGGTAGGTG yields switch fluorescence ratio of 1.03

Query TGTTTTAAAA yields switch fluorescence ratio of 0.99

Query GATAGATTAG yields switch fluorescence ratio of 0.998

Query AAGGGGACAC yields switch fluorescence ratio of 1.02

Query GTGTTAAAAT yields switch fluorescence ratio of 1.01

***
Query TGGTGGAAAC yields switch fluorescence ratio of 0.991

Query GCGGACAGGA yields switch fluorescence ratio of 1

Query TAGTGGGGGA yields switch fluorescence ratio of 0.995

Query TTCTGGGACT yields switch fluorescence ratio of 0.999

Query TGGTTGTTGT yields switch fluorescence ratio of 0.96

====

Tested on: ATP;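 further: ATP exposure 15 min at 22 °C before imaging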
Assay protocol: switch fluorescence ratio, 500 uM ATP over buffer (Cy3 cluster intensity, sum of 5 cycles each) (fold (ratio)); higher = stronger signal-on switching upon ATP binding; sequences stand for … in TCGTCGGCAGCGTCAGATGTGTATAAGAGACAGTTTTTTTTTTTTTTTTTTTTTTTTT…TC
Study conditions: aptamer strand: ATP DNA aptamer (quencher-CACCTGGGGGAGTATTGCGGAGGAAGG + anchor), 100 nM annealed; ATP concentration: 500 uM
Label FALSE if switch fluorescence ratio falls below 1; label TRUE in every other case.

Hello, I need to know if TGTTTGTAGG has measured switch fluorescence ratio not below 1. Thanks! FALSE

Hello, I need to know if AGTAGGGTGC has measured switch fluorescence ratio not below 1. Thanks! TRUE

Hello, I need to know if GAAGGTATTT has measured switch fluorescence ratio not below 1. Thanks! FALSE

====

System: ATP;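 further: ATP exposure 15 min at 22 °C before imaging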
Assay protocol: switch fluorescence ratio, 500 uM ATP over buffer (Cy3 cluster intensity, sum of 5 cycles each) (fold (ratio)); higher = stronger signal-on switching upon ATP binding; sequences stand for … in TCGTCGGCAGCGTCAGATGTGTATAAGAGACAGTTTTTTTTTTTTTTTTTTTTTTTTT…TC
Study conditions: aptamer strand: ATP DNA aptamer (quencher-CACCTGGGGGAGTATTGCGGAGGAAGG + anchor), 100 nM annealed; ATP concentration: 500 uM
Known switch fluorescence ratio of a selection of sequences
Just the number, please, no unit attached.

Query CAAATTGGGT yields switch fluorescence ratio of 0.996

Query TTTATAATTT yields switch fluorescence ratio of 0.981

Query TGGGGTTGCA yields switch fluorescence ratio of 0.99

Query GGATTTCATG yields switch fluorescence ratio of 1.07

Query CGGATCCTTC yields switch fluorescence ratio of 1.02

Query TGATGGCCGA yields switch fluorescence ratio of 0.985

Query AAAATAAGGT yields switch fluorescence ratio of 0.969

Query TAAGACGCAA yields switch fluorescence ratio of 1.62

Query CACTTAGGGC yields switch fluorescence ratio of 1.06

Query CCAGGCTATG yields switch fluorescence ratio of 1.01

***
Query ATGTTTCTAT yields switch fluorescence ratio of 0.982

Query GATGTGTCTG yields switch fluorescence ratio of 0.999

Query CCAACTTTTC yields switch fluorescence ratio of 1.04

Query TAGAGTTTGG yields switch fluorescence ratio of 1

Query GTCGGTAAAC yields switch fluorescence ratio of 1.06

Query ATAAGAATTG yields switch fluorescence ratio of 1.01

Query GAGGGCACAT yields switch fluorescence ratio of 1.03

Query ATGTATGTTG yields switch fluorescence ratio of 0.982

Query TTTAGAGTTC yields switch fluorescence ratio of 0.997

Query TGAATGGAAT yields switch fluorescence ratio of 1.04

Query TGTTCGGGAT yields switch fluorescence ratio of 0.977

Query TCTAAGAGTC yields switch fluorescence ratio of 0.975

Query TTCGATTACG yields switch fluorescence ratio of 1.03

Query AAAGAACACG yields switch fluorescence ratio of 1.05
